assay-notes: qHTS of pediatric cancer cell lines to identify multiple opportunities for drug repurposing: Confirmatory screen for SK-N-SH cells (AID 1347129);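 also: cells exposed to compound for 48 h before viability read; nearly all actives have a fitted effect of over 60% in size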
condition-info: SK-N-SH neuroblastoma cell viability; series mostly up to 46.1 µM
Inconclusive results are not listed. The source made the active and inactive calls. Calls follow the shape of the dose curve; as a rule, active = well fitted cell-killing curve with a large enough effect; inconclusive = small, poorly fitted or top-dose-only effect; inactive = flat fitted curve, though single readings scatter.
Pick one and only one: active, inactive

In: Dear all, I need the recorded test outcome for `CC(=O)OCC(=O)[C@@]1(O)[C@H](C)C[C@H]2[C@@H]3C=C(C)C4=Cc5c(cnn5-c5ccccc5)C[C@]4(C)[C@@H]3[C@@H](O)C[C@@]21C` , thank you.
Out: active

In: What classification did `COc1cccc2c(NCc3ccccc3)nc(-n3c(N)nc4ccccc43)nc12` end up with in this test?
Out: active

In: // outcome(item) with item = `Cn1c2ccccc2c2c3c(c4c5ccccc5n(CCC#N)c4c21)CNC3=O`
Out: active
